- measured_on: human gpr-54 receptor (human, UniProt Q969F8 1-398)
- Sequence (Q969F8 whole entry): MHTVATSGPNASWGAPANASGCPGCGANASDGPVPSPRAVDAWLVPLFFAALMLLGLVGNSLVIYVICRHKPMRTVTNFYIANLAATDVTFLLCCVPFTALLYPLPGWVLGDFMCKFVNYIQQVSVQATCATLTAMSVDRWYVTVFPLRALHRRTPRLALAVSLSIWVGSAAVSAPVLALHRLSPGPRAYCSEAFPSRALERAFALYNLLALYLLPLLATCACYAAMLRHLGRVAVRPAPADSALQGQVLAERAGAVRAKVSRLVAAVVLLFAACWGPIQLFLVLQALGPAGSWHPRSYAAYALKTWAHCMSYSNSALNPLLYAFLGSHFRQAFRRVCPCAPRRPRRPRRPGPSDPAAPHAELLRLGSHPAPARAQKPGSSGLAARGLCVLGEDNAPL
- method_summary: cell-based or functional assay
Non-standard residues stand in square brackets, D forms with d.
quantity: Inhibition of IP stimulation by 10nM Agonist: % Inhibition of Max (%)
State the answer as a number, implicitly in %.

Ac-[dY][dN]WNGFG[dW]RF-NH2 (also: further groups not given here) [242]	15

# get_value(readout='Inhibition of IP stimulation by 10nM Agonist: % Inhibition of Max', item= Ac-YNWN[dW]FG[dW]RF-NH2 (SMILES CC(=O)N[C@@H](Cc1ccc(O)cc1)C(=O)N[C@@H](CC(N)=O)C(=O)N[C@@H](Cc1c[nH]c2ccccc12)C(=O)N[C@@H](CC(N)=O)C(=O)N[C@H](Cc1c[nH]c2ccccc12)C(=O)N[C@@H](Cc1ccccc1)C(=O)NCC(=O)N[C@H](Cc1c[nH]c2ccccc12)C(=O)N[C@@H](CCCNC(=N)N)C(=O)N[C@@H](Cc1ccccc1)C(N)=O, kisspeptin-10 analogue; also called acYNWN[(D)-W]FG[(D)-W]RF) [229] )
68

Entry to check: Ac-[dA]NWNGFGWRF-NH2 (SMILES CC(=O)N[C@H](C)C(=O)N[C@@H](CC(N)=O)C(=O)N[C@@H](Cc1c[nH]c2ccccc12)C(=O)N[C@@H](CC(N)=O)C(=O)NCC(=O)N[C@@H](Cc1ccccc1)C(=O)NCC(=O)N[C@@H](Cc1c[nH]c2ccccc12)C(=O)N[C@@H](CCCNC(=N)N)C(=O)N[C@@H](Cc1ccccc1)C(N)=O) [248]
64
